System: HMEC
Test: Cytotoxicity in human HMEC cells assessed as inhibition of cell proliferation measured by CCK-8 assay
Format: functional, cell-based
Recorded pIC50 by entry
Entry type: numeric. Quantity: pIC50, the -log10 of concentration in molar units.

- Molecule: "COc1cc([C@@H]2c3cc4c(cc3[C@H](OC(=O)CN(C)C(=O)OC(C)(C)C)[C@H]3COC(=O)[C@H]23)OCO4)cc(OC)c1OC"
  Measurement Type: "pIC50"
  Quantitative Result: 4.56
- Molecule: "COc1cc([C@@H]2c3cc4c(cc3[C@H](O)[C@H]3COC(=O)[C@H]23)OCO4)cc(OC)c1OC"
  Measurement Type: "pIC50"
  Quantitative Result: 5.87

Field: next molecule
Which pIC50 value is on record for COc1cc([C@@H]2c3cc4c(cc3[C@H](OC(=O)c3ccncc3)[C@H]3COC(=O)[C@H]23)OCO4)cc(OC)c1OC [4-O-PODOPHYLLOTOXINYL-ISONICOTINATE] ?
5.43
